- assay.protocol: chemical genetic growth profiling, strain panel (AID 1159580);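 further: tested at 20 µM; growth read once vehicle control cultures reached saturation at 30 °C; 1 = growth at the plate median or of vehicle wells; lower values mean less growth of the strain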
- cond: S. cerevisiae deletion strains, growth OD, locus YPL240C, strain hsp82, stronger effect = lower value
Hit rate of the full screen: of about 5,500 compounds, about 2,000 (36%) were called active. Another 18% or so got no clear call; they are omitted. Some of the results follow.
Kindly state normalized growth for each of the entries shown.
Reply with the value as a number alone.

Field normalized growth (entry `C[C@H]1C(=O)O[C@@H]2CCN3CC=C(COC(=O)[C@](C)(O)[C@]1(C)O)[C@H]23` ) reads 0.986

Field normalized growth (entry `Cc1ncc([N+](=O)[O-])n1CCO` ) reads 0.983

Field normalized growth (entry CC(=O)O[C@@H]1CC2C(C)(C)[C@H](O)C[C@H](O)[C@]2(C)C2CC[C@@]3(C)C(=CC(=O)O[C@H]3c3ccoc3)[C@@]21C (stereo partly drawn) ) reads 0.994

###

- assay.protocol: chemical genetic growth profiling, strain panel (AID 1159580)
- cond: S. cerevisiae deletion strains, growth OD, locus YOR265W, strain rbl2, stronger effect = lower value
Out of some 5,500 compounds screened, about 2,000 (36%) were called active. Inconclusive results (about 18%) are left out. This is one part of the list.
measured.attribute: normalized growth
Reply with the value as a number alone.

Field normalized growth (entry C[N+]1(C)C2CC[C@H]1CC(OC(=O)C(O)c1ccccc1)C2 (some centres not stated) ) reads 0.996

Field normalized growth (entry `O=C(O)c1cccc(O)c1O` ) reads 1.01

Field normalized growth (entry OC[C@@H](O)C(O[C@@H]1O[C@H](CO)[C@H](O)[C@H](O)[C@H]1O)[C@H](O)[C@@H](O)CO (some centres not stated) ) reads 1

Field normalized growth (entry C[C@]12CCC3C(CC[C@H]4CC(=O)CC[C@]34C)C1CCC2=O (some centres not stated) ) reads 0.997

Field normalized growth (entry `O=c1ccc2cc(O[C@@H]3O[C@H](CO)[C@@H](O)[C@H](O)[C@H]3O)c(O)cc2o1` ) reads 0.984

Field normalized growth (entry `COc1c(O)cc(O)cc1O` ) reads 1.02

Field normalized growth (entry `Cc1cc(C)nc(NS(=O)(=O)c2ccc(N)cc2)n1` ) reads 0.981

Field normalized growth (entry CCC(=O)O[C@H]1CCC2C3CCc4cc(O)ccc4C3CC[C@@]21C (some centres not stated) ) reads 0.994

Field normalized growth (entry `Nc1ncnc2c1ncn2[C@@H]1O[C@H](CO)[C@@H](O)[C@@H]1O` ) reads 1

Field normalized growth (entry `O=c1cc(-c2ccc(O)cc2)oc2cc(O[C@@H]3O[C@H](CO)[C@@H](O)[C@H](O)[C@H]3O[C@@H]3OC[C@](O)(CO)[C@H]3O)cc(O)c12` ) reads 1.01

Field normalized growth (entry `COc1cc2ccc(=O)oc2c(OC)c1OC` ) reads 0.994

Field normalized growth (entry `OCCN1CCN(CCCN2c3ccccc3Sc3ccc(Cl)cc32)CC1` ) reads 0.998

Field normalized growth (entry `COc1cc(O)c(C(C)=O)c(OC)c1` ) reads 0.989

Field normalized growth (entry CN1Cc2c(N)cccc2C(c2ccccc2)C1 (configuration not stated) ) reads 1.01

Field normalized growth (entry `CC(=O)c1ccc2c(c1)N(CCCN(C)C)c1ccccc1S2` ) reads 0.995

Field normalized growth (entry `Cn1c(=O)[nH]c(=O)c2[nH]cnc21` ) reads 0.988

Field normalized growth (entry CC(C)(O)CC[C@@H](O)[C@](C)(O)C1CC[C@@]2(O)C3=CC(=O)C4C[C@@H](O)[C@@H](O)C[C@]4(C)C3CC[C@]12C (some centres not stated) ) reads 1

Field normalized growth (entry `COc1cc(O)c(C(=O)O)c(O)c1` ) reads 0.997

Field normalized growth (entry `CCS(=O)(=O)CCn1c([N+](=O)[O-])cnc1C` ) reads 0.994

Field normalized growth (entry `NCCS` ) reads 0.997

Field normalized growth (entry `COc1cc(O)c(C)c(O)c1` ) reads 1.01

Field normalized growth (entry CC1=C2CCC3C(CC[C@]4(C)C(=O)CCC34)[C@@]2(C)CCC1=O (some centres not stated) ) reads 0.985

Field normalized growth (entry CC(=O)Oc1ccc2c(c1)CCC1C2CC[C@@]2(C)C1CC[C@@H]2OC(C)=O (some centres not stated) ) reads 0.992

Field normalized growth (entry `FC(F)(F)COCC(F)(F)F` ) reads 1.01

Field normalized growth (entry `O=C(O)CCCN1C(=O)c2cccc3cccc(c23)C1=O` ) reads 1.01

Field normalized growth (entry CC(=O)O[C@H]1CC2CCC3C(CC[C@@]4(C)C3C[C@H]([N+]3(C)CCCCC3)[C@@H]4OC(C)=O)[C@@]2(C)C[C@@H]1[N+]1(C)CCCCC1 (some centres not stated) ) reads 1.02

Field normalized growth (entry `COc1c2c(cc3occ(-c4ccc5c(c4)OCO5)c(=O)c13)OC(C)(C)C=C2` ) reads 0.999

Field normalized growth (entry CC(=O)OCC(=O)[C@@]1(O)CCC2C3CCC4=CC(=O)CC[C@]4(C)[C@@]3(F)[C@@H](O)C[C@@]21C (some centres not stated) ) reads 1.02

Field normalized growth (entry CC(=O)O[C@@H]1CC2C(C)(C)[C@H](O)C[C@H](O)[C@]2(C)C2CC[C@@]3(C)C(=CC(=O)O[C@H]3c3ccoc3)[C@@]21C (some centres not stated) ) reads 0.991

Field normalized growth (entry `c1coc(CNc2ncnc3nc[nH]c23)c1` ) reads 0.996

Field normalized growth (entry C[N+]1(C)CCc2cc3c(cc2[C@H]1C1OC(=O)c2c1ccc1c2OCO1)OCO3 (some centres not stated) ) reads 1.01

Field normalized growth (entry `C[C@H]1C(=O)O[C@@H]2CCN3CC=C(COC(=O)[C@](C)(O)[C@]1(C)O)[C@H]23` ) reads 0.996

###

- assay.protocol: chemical genetic growth profiling, strain panel (AID 1159580)
- cond: S. cerevisiae deletion strains, growth OD, locus YOR061W, strain CKA2, stronger effect = lower value
Among all 5,500 compounds or so, about 2,000 (36%) were called active. Another 18% or so got no clear call; they are omitted. The list shows a part of the results.
Kindly state normalized growth for each of the entries shown.
Reply with the value as a number alone.

Field normalized growth (entry `COc1cc2c(cc1-c1coc3c4c(c(OC)cc3c1=O)OC(C)(C)C=C4)OCO2` ) reads 1.02

Field normalized growth (entry `CCCCC(=O)N(Cc1ccc(-c2ccccc2-c2nn[nH]n2)cc1)[C@H](C(=O)O)C(C)C` ) reads 0.985

Field normalized growth (entry `Cn1c(=O)[nH]c(=O)c2[nH]cnc21` ) reads 0.986

Field normalized growth (entry `N/C(=N/OC(=O)c1ccccc1Cl)c1cccc(CS(=O)(=O)c2ccc(Cl)cc2)c1` ) reads 1.01

Field normalized growth (entry `O=c1c(-c2ccc3c(c2)OCO3)coc2cc(O)ccc12` ) reads 0.981

###

- assay.protocol: chemical genetic growth profiling, strain panel (AID 1159580);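 further: tested at 20 µM; growth read once vehicle control cultures reached saturation at 30 °C; 1 = growth at the plate median or of vehicle wells; lower values mean less growth of the strain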
- cond: S. cerevisiae deletion strains, growth OD, locus YDR502C, strain sam2
Screen size: about 5,500 compounds; about 2,000 (36%) were called active. Another 18% or so got no clear call; they are omitted. Rule as the data show it: active = normalized growth mostly below about 0.91 (no sharp cut-off); inconclusive = no clear call, values can overlap the other calls; inactive = mostly above about 0.92. This is one part of the list.
Choose one outcome from this list and give only that: active, inactive

Prompt: Dear colleague, could you share the recorded outcome for `COc1ccc2ccc(=O)oc2c1CC=C(C)C` when you have a moment?
Response: active

Prompt: Dear colleague, could you share the recorded outcome for `COc1cc(O)c(C(=O)c2ccccc2)c(OC)c1` when you have a moment?
Response: inactive

Prompt: Dear colleague, could you share the recorded outcome for `COP(=S)(OC)SCn1nnc2ccccc2c1=O` when you have a moment?
Response: inactive

###

Kindly state normalized growth for each of the entries shown.
- assay.protocol: chemical genetic growth profiling, strain panel (AID 1159580);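 further: tested at 20 µM; growth read once vehicle control cultures reached saturation at 30 °C; 1 = growth at the plate median or of vehicle wells; lower values mean less growth of the strain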
- cond: S. cerevisiae deletion strains, growth OD, locus YNL322C, strain KRE1, stronger effect = lower value
About 2,000 (36%) of roughly 5,500 compounds were called active. Not shown: some 18% with an inconclusive outcome. The list shows a part of the results.

Field normalized growth (entry `COC(=O)Cc1nc(NC(=O)c2ccccc2)sc1C` ) reads 1.01 (inactive)

Field normalized growth (entry `CCCc1nc(C(C)(C)O)c(C(=O)OCc2oc(=O)oc2C)n1Cc1ccc(-c2ccccc2-c2nn[nH]n2)cc1` ) reads 0.997 (inactive)

Field normalized growth (entry `CCOC(=O)CC1=Nn2c(nnc2-c2cc(Cl)cc(Cl)c2)SC1` ) reads 0.977 (inactive)

###

- assay.protocol: chemical genetic growth profiling, strain panel (AID 1159580);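 further: tested at 20 µM; growth read once vehicle control cultures reached saturation at 30 °C; 1 = growth at the plate median or of vehicle wells; lower values mean less growth of the strain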
- cond: S. cerevisiae deletion strains, growth OD, locus YDR150W, strain NUM1, stronger effect = lower value
The campaign covered roughly 5,500 compounds. About 2,000 (36%) were called active. About 18% were inconclusive and are not listed. This is one part of the list.
measured.attribute: normalized growth

Field normalized growth (entry `O=c1[nH]c2ccccc2n1C1CCN(CCCC(c2ccc(F)cc2)c2ccc(F)cc2)CC1` ) reads 0.973 (inactive)

Field normalized growth (entry `O=c1c(-c2ccc3c(c2)OCO3)coc2cc(O)ccc12` ) reads 0.995 (inactive)

Field normalized growth (entry `C/C=C(/C)C(=O)O[C@H]1C(C)=C2[C@H]([C@@H]1OC(=O)CCCCCCC)[C@@](C)(OC(C)=O)C[C@H](OC(=O)CCC)[C@@]1(O)[C@H]2OC(=O)[C@@]1(C)O` ) reads 1.01 (inactive)
